Each entry below carries its recorded pKi.
- experimental-system: Synaptic vesicular amine transporter (Rattus norvegicus)
- assay-comment: Inhibition of [3H]DA uptake at VMAT2 in rat striatal synaptic vesicles
The scale used: pKi is minus the common logarithm of the concentration in molar units.

Please review the entries below; each comes with its answer.
OC[C@@H](O)CN1[C@@H](CCc2ccccc2)CCC[C@H]1CCc1ccccc1 = 6.07
OCCN1[C@@H](CCc2ccccc2)CCC[C@H]1CCc1ccccc1 = 6.77
CCCN1[C@@H](CCc2ccccc2)CCC[C@H]1CCc1ccccc1 = 7.06
COc1ccc(C[C@H]2CCC[C@@H](Cc3ccc(OC)cc3)N2)cc1 = 7.32
COc1ccccc1CC[C@H]1CCC[C@@H](CCc2ccccc2OC)N1C[C@@H](O)CO = 6.31

Note: attention shifts to another entry.
Which measured pKi belongs to COc1cccc(CC[C@H]2CCC[C@@H](CCc3cccc(OC)c3)N2C[C@H](O)CO)c1 , tested on Synaptic vesicular amine transporter (Rattus norvegicus)?
6.28

###

- experimental-system: UniProt:Q01827
- assay-comment: Inhibition of [3H]DA uptake at VMAT2 in rat striatal synaptic vesicles
pKi: −log10 of the molar value.
Returns y if the recorded pKi is greater than or equal to 7, and n otherwise.

Example entries begin here.
OC[C@H](O)CN1[C@@H](CCc2cccc(F)c2)CCC[C@H]1CCc1cccc(F)c1 = n
OC[C@H](O)CN1[C@@H](CCc2cccc3ccccc23)CCC[C@H]1CCc1cccc2ccccc12 = y
NCCN1[C@@H](CCc2ccccc2)CCC[C@H]1CCc1ccccc1 = n
Fc1cc(F)cc(CC[C@H]2CCC[C@@H](CCc3cc(F)cc(F)c3)N2)c1 = y

Now look at this one.
Could you verify whether the entry N#CCN1[C@@H](CCc2ccccc2)CCC[C@H]1CCc1ccccc1 shows pKi of no less than 7?
n

###

- experimental-system: Synaptic vesicular amine transporter (Rattus norvegicus, UniProt Q01827)
- Sequence (Q01827 whole entry): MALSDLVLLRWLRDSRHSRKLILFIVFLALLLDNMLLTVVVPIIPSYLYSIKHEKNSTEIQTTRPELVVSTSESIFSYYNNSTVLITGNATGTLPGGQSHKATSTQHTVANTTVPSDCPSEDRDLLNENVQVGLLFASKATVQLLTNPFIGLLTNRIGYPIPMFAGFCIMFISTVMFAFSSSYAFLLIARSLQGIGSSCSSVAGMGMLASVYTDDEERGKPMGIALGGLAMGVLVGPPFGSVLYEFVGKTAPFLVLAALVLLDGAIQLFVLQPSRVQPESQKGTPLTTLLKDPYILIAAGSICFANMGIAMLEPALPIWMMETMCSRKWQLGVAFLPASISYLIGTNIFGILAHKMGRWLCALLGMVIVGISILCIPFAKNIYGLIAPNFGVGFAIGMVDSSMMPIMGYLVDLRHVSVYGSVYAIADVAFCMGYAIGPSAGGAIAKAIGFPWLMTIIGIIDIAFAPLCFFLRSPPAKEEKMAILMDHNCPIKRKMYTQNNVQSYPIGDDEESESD
- assay-comment: Inhibition of [3H]DA uptake at VMAT2 in rat striatal synaptic vesicles
quantity: pKi
Note on units: pKi is unitless, being -log10 of a concentration expressed in mol/L.

Examples from the recorded data:
OC[C@@H](O)CN1[C@@H](CCc2ccc3c(c2)OCO3)CCC[C@H]1CCc1ccc2c(c1)OCO2 = 6.12
c1ccc(CC[C@H]2CCC[C@@H](CCc3ccccc3)N2)cc1 = 7.36
CN(C)CCN1[C@@H](CCc2ccccc2)CCC[C@H]1CCc1ccccc1 = 6.74

For OC[C@@H](O)CN1[C@@H](CCc2ccc(-c3ccccc3)cc2)CCC[C@H]1CCc1ccc(-c2ccccc2)cc1 , what is its reported pKi?
5.65

Any idea what pKi was measured for COc1ccccc1CC[C@H]1CCC[C@@H](CCc2ccccc2OC)N1C[C@H](O)CO ?
6.10

###

- experimental-system: Synaptic vesicular amine transporter (Rattus norvegicus)
- assay-comment: Inhibition of [3H]DTBZ binding to VMAT2 in rat synaptic vesicle membranes
- Format: cell membranes
Sorting guide: entries reporting Ki beneath 1000 nM go in the yes pile, the rest go in the no pile.

As a guide, the following entries are already answered.
OC[C@H](O)CN1[C@@H](CCc2ccc3c(c2)OCO3)CCC[C@H]1CCc1ccc2c(c1)OCO2 = no
OCCN1[C@@H](CCc2ccccc2)CCC[C@H]1CCc1ccccc1 = no
CN(C)CCN1[C@@H](CCc2ccccc2)CCC[C@H]1CCc1ccccc1 = no
OC[C@@H](O)CN1[C@@H](CCc2ccc(Cl)cc2Cl)CCC[C@H]1CCc1ccc(Cl)cc1Cl = no
N=C(N)NCCN1[C@@H](CCc2ccccc2)CCC[C@H]1CCc1ccccc1 = no
COc1ccc(F)c(CC[C@H]2CCC[C@@H](CCc3cc(OC)ccc3F)N2C[C@@H](O)CO)c1 = yes

Lab log: compare recorded Ki with 1000 nM; is it strictly lower for COc1cccc(CC[C@H]2CCC[C@@H](CCc3cccc(OC)c3)N2C[C@@H](O)CO)c1 ?
yes

###

- experimental-system: Synaptic vesicular amine transporter (Rattus norvegicus)
- assay-comment: Inhibition of [3H]DA uptake at VMAT2 in rat striatal synaptic vesicles
quantity: pKi
// scale note: pKi = -log10(conc_M); give the bare number

CCN1[C@@H](CCc2ccccc2)CCC[C@H]1CCc1ccccc1 = 7.22

Dear colleague, I am looking for the recorded pKi of the following compound: OC[C@H](O)CN1[C@@H](CCc2ccc3c(c2)OCO3)CCC[C@H]1CCc1ccc2c(c1)OCO2
6.80

Given the compound OC[C@H](O)CN1[C@@H](CCc2ccc(Cl)cc2Cl)CCC[C@H]1CCc1ccc(Cl)cc1Cl , what is its reported pKi?
6.85

Reported pKi for N=C(N)NCCN1[C@@H](CCc2ccccc2)CCC[C@H]1CCc1ccccc1 : what is it?
6.17

Which pKi value belongs to OC[C@H](O)CN1[C@@H](CCc2ccccc2)CCC[C@H]1CCc1ccccc1 ?
6.72

Can you share its pKi? I mean this compound: FC(F)Oc1ccc(CC[C@H]2CCC[C@@H](CCc3ccc(OC(F)F)cc3)N2)cc1
7.64

Quick one: pKi of OC[C@@H](O)CN1[C@@H](CCc2cccc3ccccc23)CCC[C@H]1CCc1cccc2ccccc12 ?
7.10

What measured pKi goes with OC[C@H](O)CN1[C@@H](CCc2ccc(-c3ccccc3)cc2)CCC[C@H]1CCc1ccc(-c2ccccc2)cc1 ?
6.10

Could you share which pKi value was measured for COc1ccc(F)c(CC[C@H]2CCC[C@@H](CCc3cc(OC)ccc3F)N2)c1 ?
7.41

###

- experimental-system: Synaptic vesicular amine transporter (Rattus norvegicus)
- assay-comment: Inhibition of [3H]DA uptake at VMAT2 in rat striatal synaptic vesicles
Parameter: Ki. Scope: all listed entries.
Could you give me the number in nM? Just the number is fine.

OC[C@H](O)CN1[C@@H](CCc2cc(F)cc(F)c2)CCC[C@H]1CCc1cc(F)cc(F)c1 = 104
OC[C@@H](O)CN1[C@@H](CCc2ccc(Cl)cc2Cl)CCC[C@H]1CCc1ccc(Cl)cc1Cl = 90

Consider the molecule COc1ccc(F)c(CC[C@H]2CCC[C@@H](CCc3cc(OC)ccc3F)N2C[C@@H](O)CO)c1 and give its measured Ki.
160

Name the reported Ki value associated with the molecule COc1cccc(CC[C@H]2CCC[C@@H](CCc3cccc(OC)c3)N2C[C@@H](O)CO)c1
140

###

- experimental-system: Synaptic vesicular amine transporter (Rattus norvegicus, UniProt Q01827)
- assay-comment: Inhibition of [3H]DTBZ binding to VMAT2 in rat synaptic vesicle membranes
- Assay type: cell membranes
So basically, if Ki comes in under 2000 nM it's met, and if it's 2000 nM or more it's not met.

Record excerpt, results attached:
OC[C@H](O)CN1[C@@H](CCc2ccc(Cl)cc2Cl)CCC[C@H]1CCc1ccc(Cl)cc1Cl = not met
NCCN1[C@@H](CCc2ccccc2)CCC[C@H]1CCc1ccccc1 = not met
N#CCN1[C@@H](CCc2ccccc2)CCC[C@H]1CCc1ccccc1 = not met
OC[C@@H](O)CN1[C@@H](CCc2cccc3ccccc23)CCC[C@H]1CCc1cccc2ccccc12 = met
COc1ccccc1CC[C@H]1CCC[C@@H](CCc2ccccc2OC)N1C[C@@H](O)CO = met
OC[C@H](O)CN1[C@@H](CCc2cccc(F)c2)CCC[C@H]1CCc1cccc(F)c1 = met
OC[C@H](O)CN1[C@@H](CCc2ccccc2)CCC[C@H]1CCc1ccccc1 = met
COc1ccc(C[C@H]2CCC[C@@H](Cc3ccc(OC)cc3)N2C[C@@H](O)CO)cc1 = not met

Here's an entry: COc1ccccc1CC[C@H]1CCC[C@@H](CCc2ccccc2OC)N1C[C@H](O)CO . Is its Ki below 2000 nM?
met

Determine whether this molecule shows Ki lower than 2000 nM (ties excluded): OC[C@H](O)CN1[C@@H](CCc2ccc(-c3ccccc3)cc2)CCC[C@H]1CCc1ccc(-c2ccccc2)cc1
not met

Given FC(F)Oc1ccc(CC[C@H]2CCC[C@@H](CCc3ccc(OC(F)F)cc3)N2)cc1 , is recorded Ki strictly lower than 2000 nM?
met

Report whether reported Ki is lower than 2000 nM (strictly) for OC[C@@H](O)CN1[C@@H](CCc2cccc(F)c2)CCC[C@H]1CCc1cccc(F)c1
met

###

- experimental-system: Synaptic vesicular amine transporter (Rattus norvegicus)
- assay-comment: Inhibition of [3H]DA uptake at VMAT2 in rat striatal synaptic vesicles
Reported pKi values for a set of compounds
Value format note: pKi is -log10 of concentration (mol/L); just state the number.

Previously resolved entries follow.
COC(=O)CN1[C@@H](CCc2ccccc2)CCC[C@H]1CCc1ccccc1 = 6.47
OC[C@@H](O)CN1[C@@H](CCc2cccc(F)c2)CCC[C@H]1CCc1cccc(F)c1 = 5.99
COc1ccc(C[C@H]2CCC[C@@H](Cc3ccc(OC)cc3)N2C[C@@H](O)CO)cc1 = 6.24
CN(C)N1[C@@H](CCc2ccccc2)CCC[C@H]1CCc1ccccc1 = 7.27

We next turn to a different compound, shown below.
Write down the reported pKi of OC[C@H](O)CN1[C@@H](CCc2ccc(OC(F)F)cc2)CCC[C@H]1CCc1ccc(OC(F)F)cc1 , test system: Synaptic vesicular amine transporter (Rattus norvegicus).
7.22
